- Test system: CEM cells HIV-1 protection, formazan growth assay
- test details: NCI AIDS Antiviral Assay
- conditions: measured here: growth of uninfected CEM cells
- Protocol: The ability of compounds to protect human CEM cells from HIV-1 infection is measured as a screen for new compounds capable of inhibiting the HIV virus. Five concentrations of drug were tested on uninfected and infected cells and cell growth was measured using a soluble formazan assay. […] Compounds that provided at least 50% protection were retested. Compounds that provided at least 50% protection on retest were listed as moderately active. […]
endpoint: pIC50
Answers are plain numbers, as −log10 of the molar value.

Worked examples follow.
[
  {
    "compound": "O=C1CCC2(CC1CC(Sc1ccccc1)Sc1ccccc1)OCCO2 (stereo unspecified)",
    "target": "CEM cells HIV-1 protection, formazan growth assay",
    "pIC50": 4.38
  },
  {
    "compound": "CC(Oc1ccc(OCC2CCCCC2)cc1)C(=O)N(CCO)CCO (stereo unspecified)",
    "target": "CEM cells HIV-1 protection, formazan growth assay",
    "pIC50": 4.35
  },
  {
    "compound": "O=C1C=CC[C@H](/C=C/C[C@@H](O)C[C@H](O)/C=C/c2ccccc2)O1",
    "target": "CEM cells HIV-1 protection, formazan growth assay",
    "pIC50": 5.27
  },
  {
    "compound": "O=C1c2ccc(O)cc2OC(c2cc(O)c(O)c(O)c2)C1O (stereo unspecified)",
    "target": "CEM cells HIV-1 protection, formazan growth assay",
    "pIC50": 4.93
  },
  {
    "compound": "CCCNC(=O)N1CC(CN2CCN(c3ccccc3)CC2)O/C1=N/C(=O)Nc1ccccc1 (stereo unspecified)",
    "target": "CEM cells HIV-1 protection, formazan growth assay",
    "pIC50": 4.11
  }
]

Looking up C=CC(C)NC(=S)NNC(=S)NC (stereo unspecified) , I found its pIC50 recorded as 4.05

* * *

- Tested on: CEM cells HIV-1 protection, formazan growth assay
- test details: NCI AIDS Antiviral Assay;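 active means compounds giving half or more protection of infected cells from virus-caused growth loss, again on retest; inactive means the rest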
- Method: The ability of compounds to protect human CEM cells from HIV-1 infection is measured as a screen for new compounds capable of inhibiting the HIV virus. Five concentrations of drug were tested on uninfected and infected cells and cell growth was measured using a soluble formazan assay. […] Compounds that provided at least 50% protection were retested. Compounds that provided at least 50% protection on retest were listed as moderately active. […]
Respond with a class label; see Yes for active, No for inactive

[
  {
    "compound": "Cc1c2ccccc2nc(CS(=O)(=O)c2ccccc2)[n+]1[O-]",
    "assigned class": "No"
  },
  {
    "compound": "Cn1nnnc1SCC1=C(C(=O)O)N2C(=O)C(NC(=O)C(OC=O)c3ccccc3)C2SC1 (centres undefined)",
    "assigned class": "No"
  },
  {
    "compound": "N#CC1=C(N)OC(c2cccc([N+](=O)[O-])c2)C1(C#N)C#N (centres undefined)",
    "assigned class": "No"
  },
  {
    "compound": "CCCCNC(C)(C)C(SSSC(c1ccco1)C(C)(C)NCCCC)c1ccco1 (centres undefined)",
    "assigned class": "No"
  },
  {
    "compound": "N#CCc1nc2ccccc2c(=O)[nH]1",
    "assigned class": "Yes"
  },
  {
    "compound": "COC(=O)c1ccccc1C1CN=NC12Cc1ccccc1C2=O (centres undefined)",
    "assigned class": "No"
  }
]

[Q] Answer briefly: the call reported for O=C(CC1=NC2NN(c3ccccc3)C(=O)C2=C1CC(=O)c1ccccc1)c1ccccc1 (centres undefined) in this assay.
[A] No

[Q] Answer briefly: the call reported for N#CCCN(CCC#N)c1ccc(/C=C2\CC(O)(c3ccccc3)N(c3ccc(Cl)cc3)C2=O)cc1 (centres undefined) in this assay.
[A] No

[Q] Answer briefly: the call reported for C=CCNC(=S)N/C=C(/C(=O)c1ccccc1)c1ccccc1 in this assay.
[A] No

[Q] Answer briefly: the call reported for CSC(=Nc1ccccc1)c1c(C)[nH]n(-c2ccccc2)c1=O in this assay.
[A] No

[Q] Answer briefly: the call reported for CN(C)c1ccc(/C=C2\CC(C)(C)c3ccccc3C2=O)cc1 in this assay.
[A] No

[Q] Answer briefly: the call reported for CCOC(=O)C(C)c1nc2cc(C(F)(F)F)ccc2[nH]c1=O (centres undefined) in this assay.
[A] No

[Q] Answer briefly: the call reported for CC(NC(=O)C(Cc1ccc(OC(=O)c2ccccc2)cc1)NC(=O)OC(C)(C)C)C(=O)NCC(=O)NC(Cc1ccccc1)C(=O)NN (centres undefined) in this assay.
[A] No

[Q] Answer briefly: the call reported for Cc1cccc(C)c1NC(=O)CCC(=O)NC(N)=NC#N in this assay.
[A] No

[Q] Answer briefly: the call reported for Cc1cccc(C)c1N/C(=N\Nc1c([N+](=O)[O-])cccc1[N+](=O)[O-])NC(=O)c1ccccc1C(=O)N/C(=N/Nc1c([N+](=O)[O-])cccc1[N+](=O)[O-])Nc1c(C)cccc1C in this assay.
[A] No

[Q] Answer briefly: the call reported for CC(C)C(=O)N1Cc2cc(Cl)cc(Cl)c2OC(=O)c2ccccc21 in this assay.
[A] No

[Q] Answer briefly: the call reported for COc1ccc2ccccc2c1CN1CCOCCOCCN(Cc2c(OC)ccc3ccccc23)CCOCCOCC1 in this assay.
[A] No

[Q] Answer briefly: the call reported for O=C1COCC(=O)N1 in this assay.
[A] No

[Q] Answer briefly: the call reported for C=CCc1cc(/C(CC)=C(/CC)c2ccc(OCCN(CC)CC)c(CC=C)c2)ccc1OCCN(CC)CC in this assay.
[A] No

[Q] Answer briefly: the call reported for CC(=O)O[C@@H]1CCN(Cc2ccccc2)C[C@@H]1CN(C(C)=O)C12CC3CC(CC(C3)C1)C2 in this assay.
[A] No

* * *

- Tested on: CEM cells HIV-1 protection, formazan growth assay
- test details: NCI AIDS Antiviral Assay;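 active = compounds giving half or more protection of infected cells from virus-caused growth loss, again on retest; inactive = the rest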
Respond with a class label; see class 1 for active, class 0 for inactive

Previously resolved entries follow.
[
  {
    "compound": "Clc1ccc(-c2c(C3=NCCCN3)nnn2-c2ccc(Cl)cc2)cc1",
    "assigned class": "class 0"
  },
  {
    "compound": "C=CCCCCCCCCC(=O)NC(C)C(C)(C)C (stereo unspecified)",
    "assigned class": "class 0"
  },
  {
    "compound": "CCOC(=O)/C=C(/N=P(c1ccccc1)(c1ccccc1)c1ccccc1)C(F)(F)F",
    "assigned class": "class 0"
  },
  {
    "compound": "Cc1nc(Cc2n[nH]c(C)n2)n[nH]1",
    "assigned class": "class 0"
  },
  {
    "compound": "COC1OC(Cn2c(C)nc(Br)c2Br)C(O)C(O)C1O (stereo unspecified)",
    "assigned class": "class 0"
  },
  {
    "compound": "CC(C)(C)c1cc(N=O)cc(C(C)(C)C)c1O",
    "assigned class": "class 0"
  },
  {
    "compound": "CC1CCC2(CC1)N=C1CCC(C)CC1C1(CCC(C)CC1)N2 (stereo unspecified)",
    "assigned class": "class 0"
  },
  {
    "compound": "CNC(=O)OCc1cnc([N+](=O)[O-])n1C",
    "assigned class": "class 0"
  },
  {
    "compound": "O/N=C1/C(=C/c2ccc(Oc3ccccc3)cc2)CCCC1C(NO)c1ccc(Oc2ccccc2)cc1 (stereo unspecified)",
    "assigned class": "class 0"
  },
  {
    "compound": "O=C1CCc2cc3c(cc21)C(C(=O)O)CC3 (stereo unspecified)",
    "assigned class": "class 0"
  }
]

Please look at the following compound next.
[Q] Answer briefly: the call reported for O=[N+]([O-])c1ccccc1S(=O)(=O)c1cc(Cl)cc2c1NCCC2 in this assay.
[A] class 1

* * *

Please provide measured pIC50 for the entries that follow.
- Test system: CEM cells HIV-1 protection, formazan growth assay
- test details: NCI AIDS Antiviral Assay
- conditions: measured here: growth of uninfected CEM cells
- Description: The ability of compounds to protect human CEM cells from HIV-1 infection is measured as a screen for new compounds capable of inhibiting the HIV virus. Five concentrations of drug were tested on uninfected and infected cells and cell growth was measured using a soluble formazan assay. […] Compounds that provided at least 50% protection were retested. Compounds that provided at least 50% protection on retest were listed as moderately active. […]
pIC50: −log10 of the molar value.

[
  {
    "molecule": "CC(C)=CCN(N=O)c1ncnc2nc[nH]c12",
    "pIC50": "< 3.70"
  }
]

Please give pIC50 for each item listed below.
1. O=[N+]([O-])c1cc(S(=O)(=O)c2ccc(N(CCO)CCO)c([N+](=O)[O-])c2)ccc1N(CCO)CCO
2. C=CCC1(C#N)C(=S)NC2=C(C(=O)CC(C)(C)C2)C1c1ccccc1 (stereo unspecified)
3. Cc1csc(NNC(N)=O)n1
4. COc1ccc(C2S/C(=C\c3cccc([N+](=O)[O-])c3)C(=O)N2NC(=O)Cc2ccccc2)cc1 (stereo unspecified)
5. C=C[C@@](C)(/C=C/c1ccc(O)cc1)CCC=C(C)C
6. O=c1[nH]cc(CN2CCOCC2)c(=O)[nH]1
7. N#CC12C(=O)NC(=O)C1(C#N)C1C=CC2CC1 (stereo unspecified)
8. Cc1ccc(S(=O)(=O)n2cnc(CC(NC(=O)C3CCC(=O)N3C(=O)OCc3ccccc3)C(=O)N3CCCC3C(=O)NN)c2)cc1 (stereo unspecified)

[A]
[4.45, "< 3.70", "< 3.70", "< 4.40", 4.60, "< 3.21", "< 3.70", "< 3.70"]

Please give pIC50 for each item listed below.
1. COc1ccc(CCn2cncn2)cc1
2. O=C(CNc1ccccc1Cl)Nn1c(-c2ccccc2)nc2ccccc2c1=O

[A]
< 2.98
4.52

Entry source: PubChem BioAssay AID179
